Molecular target: UniProt:P51681
Sequence (P51681 whole entry): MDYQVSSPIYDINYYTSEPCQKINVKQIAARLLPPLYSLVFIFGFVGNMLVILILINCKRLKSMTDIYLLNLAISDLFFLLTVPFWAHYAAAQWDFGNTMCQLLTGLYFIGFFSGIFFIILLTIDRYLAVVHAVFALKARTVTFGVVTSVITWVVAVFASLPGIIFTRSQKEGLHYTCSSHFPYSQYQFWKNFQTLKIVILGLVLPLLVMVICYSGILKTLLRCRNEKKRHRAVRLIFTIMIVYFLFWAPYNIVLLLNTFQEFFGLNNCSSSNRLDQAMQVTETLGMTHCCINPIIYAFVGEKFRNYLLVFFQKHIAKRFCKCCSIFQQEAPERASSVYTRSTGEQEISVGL
Assay: Displacement of [125I]MIP1-alpha from human CCR5/CD4 expressed in HEK293 cells
Item-by-item account of IC50
measured.attribute: IC50 (nM)

[[record]]
structure_smiles = "Cc1ccc(COc2ccc(Br)cc2/C=N/NC(=N)N)cc1"
relation_sign = "="
meas_value = 500

[[record]]
structure_smiles = "COc1ccc(COc2ccc(Br)cc2/C=N/NC(=N)N)cc1"
relation_sign = "="
meas_value = 700

[[record]]
structure_smiles = "CCN(CC)Cc1cc(Br)ccc1OCc1ccc(Cl)cc1"
relation_sign = "="
meas_value = 1400

[[record]]
structure_smiles = "CC/C(=N\\NC(=N)N)c1cc(Br)cc(OC)c1OCc1ccc(Cl)cc1"
relation_sign = "="
meas_value = 400

[[record]]
structure_smiles = "N#Cc1ccc(OCc2ccc(Cl)cc2)c(/C=N/NC(=N)N)c1"
relation_sign = "="
meas_value = 600

[[record]]
structure_smiles = "C/C(=N\\NC(=N)N)c1cc(Cl)ccc1OCc1ccc(Cl)cc1"
relation_sign = "="
meas_value = 140

[[record]]
structure_smiles = "COC(=O)c1ccc(OCc2ccc(Cl)cc2)c(/C=N/NC(=N)N)c1"
relation_sign = ">"
meas_value = 30000

[[record]]
structure_smiles = "N=C(N)N/N=C/c1ccc(Cl)cc1OCc1ccc(Cl)cc1"
relation_sign = ">"
meas_value = 30000

[[record]]
structure_smiles = "CCN(CC)c1ccc(OCc2ccc(Cl)cc2)c(/C=N/NC(=N)N)c1"
relation_sign = ">"
meas_value = 30000

[[record]]
structure_smiles = "CC(C)(C)c1ccc(OCc2ccc(Cl)cc2)c(/C=N/NC(=N)N)c1"
relation_sign = ">"
meas_value = 30000

[[record]]
structure_smiles = "N=C(N)N/N=C/c1cc(Br)ccc1OCc1ccccc1[N+](=O)[O-]"
relation_sign = "="
meas_value = 5700

[[record]]
structure_smiles = "CCCC/C(=N\\NC(=N)N)c1cc(Cl)ccc1OCc1ccc(F)cc1"
relation_sign = "="
meas_value = 4200

[[record]]
structure_smiles = "CC(C)C/C(=N\\NC(=N)N)c1cc(Cl)ccc1OCc1ccc(F)cc1"
relation_sign = ">"
meas_value = 30000

[[record]]
structure_smiles = "C/C(=N\\NC(=N)N)c1cc(Br)ccc1OCc1ccc(Cl)cc1"
relation_sign = "="
meas_value = 200

[[record]]
structure_smiles = "N=C(N)N/N=C/c1cc(Br)ccc1OCc1cccc([N+](=O)[O-])c1"
relation_sign = "="
meas_value = 1700

[[record]]
structure_smiles = "N=C(N)N/N=C/c1cc(Br)ccc1OCc1ccc(Br)cc1"
relation_sign = "="
meas_value = 600

[[record]]
structure_smiles = "N=C(N)N/N=C/c1cccc(F)c1OCc1ccc(Cl)cc1"
relation_sign = ">"
meas_value = 30000

[[record]]
structure_smiles = "CN(C)Cc1cc(Br)ccc1OCc1ccc(Cl)cc1"
relation_sign = "="
meas_value = 600

[[record]]
structure_smiles = "N=C(N)N/N=C/c1cc(Br)ccc1OCc1ccc([N+](=O)[O-])cc1"
relation_sign = "="
meas_value = 900

[[record]]
structure_smiles = "Clc1ccc(COc2ccc(Br)cc2/C=N/NC2=NCCN2)cc1"
relation_sign = "="
meas_value = 750

[[record]]
structure_smiles = "CN(/N=C/c1cc(Br)ccc1OCc1ccc(Cl)cc1)C1=NCCN1"
relation_sign = "="
meas_value = 14000

[[record]]
structure_smiles = "N=C(N)N/N=C/c1cc(Br)ccc1OCc1cccc(C(=O)O)c1"
relation_sign = "="
meas_value = 39000

[[record]]
structure_smiles = "Clc1ccc(COc2ccc(Br)cc2/C=N/NC2=NCCCN2)cc1"
relation_sign = "="
meas_value = 2000

